assay_comment: Oral administration pharmacokinetic studies in rats (thiorphan plasma concentration, HPLC)
Assay type: in vivo, Sprague Dawley rats
recorded_conditions: Sprague Dawley, rat, plasma, iv; individual rats; thiorphan i.v. 13.4 mg/kg
property_name: Tmax
Number first, unit second.

For O=C(O)CNC(=O)C(CS)Cc1ccccc1 (stereo not shown) [Thiorphan, thiorphan] , what is its reported Tmax?
1.98 min
